- Tgt: T1, human IL-25 expressed with a C-terminal myc-myc-hexahistidine tag (human)
- T1 chain: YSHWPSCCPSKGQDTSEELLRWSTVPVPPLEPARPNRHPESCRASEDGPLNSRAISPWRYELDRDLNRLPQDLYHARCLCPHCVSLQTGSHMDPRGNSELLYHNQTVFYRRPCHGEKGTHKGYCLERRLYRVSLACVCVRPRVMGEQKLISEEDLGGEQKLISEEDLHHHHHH
- Experiment Description: cell-based or functional assay
Listed below: IC50, luciferase reporter cells, 5 pM hIL-25-MMH values for each entry.
Write the answer as a number in M, unit excluded.

Below: 2 binders and their reported IC50, luciferase reporter cells, 5 pM hIL-25-MMH.
>>> test_result("H4H10876P (antibody, human IgG4, V domains shown, H4H prefix = human IgG4 Fc) VH: QVQLVQSGAEVKKPGASVKVSCKASEYTFSNYGISWVRQAPGQGLEWLGWIGAYSGFTKYAQKVQDRITMTTDASTTTAYMELRNLRSDDTAVYYCARVGTGTDSYFDFWGQGTLVTVSS VL: DIQMTQSPSSLSASVGDRVTITCRASQNINSHLNWYQQKPGKAPKLLIYTASSLQSGVPLRFSGSGSGTDFTLTISSLQPEDFGIYICQQTYITPLTFGGGTKVEIK")
"4.6e-10"
>>> test_result("H4H10861P (antibody, human IgG4, V domains shown, H4H prefix = human IgG4 Fc) VH: QVQLQESGPGLVKPSETLSLTCTVSGASISNYYWSWIRQPPGKGLEWIGYIFYSGNTNYNPSLKSRVTISVDTSKNQFSLKLSSVTAADTAVYYCARVRFSDYELNWFDPWGQGTLVTVSS VL: DIVMTQSPDSLAVFLGERATINCRSSQSVFLGSNNKNYLAWYQQKPGQPPKLLIYWASSRESGVPDRFSGSGSGTDFTLTINSLQAEDVAVYYCQQYFITPLTFGGGTKVEIK")
"6.3e-11"

Turning now to a further binder:
Q: Give recorded IC50, luciferase reporter cells, 5 pM hIL-25-MMH. H4H10905P (antibody, human IgG4, V domains shown, H4H prefix = human IgG4 Fc) VH: QVQLVQSGAEVKKPGTSVKVSCKASGYTFTNYGISWVRQAPGQGLEWLGWISAYNDNTDYAQKLQARVTMTTDTFTSTAYMDLRSLRSDDTAVYYCARVPITGTTSSFDFWGQGTLVTVSS VL: DIQMTQSPSSLSASVGDRVTISCRASQTIYSYLNWFQQKPGKAPKLLIYDASSLQSGVPSRFSGSGSGTHFTLTISSLQPEDFATYFCQQTYSTPLTFGGGTKVEIK
Result: 5.1e-10
